These data points were gathered from paper PMC11292009.

Test system: myoglobin (Myo)
assay info: Intact protein MS photoaffinity labeling screen, myoglobin
Type: binding
particulars: intact protein MS after 10 min irradiation
Could you please report measured MS labeling percentage, Myo for the items listed next?
# output: bare number, implied unit %

Q. Item `Cn1cnnc1CCNC(=O)CCC1(C)N=N1` has what recorded MS labeling percentage, Myo?
A. 0.3

Q. # lookup: MS labeling percentage, Myo of `Cc1cccc(-c2cnc(CNC(=O)CCC3(C)N=N3)[nH]2)c1`
A. 1.4

Q. Need MS labeling percentage, Myo, item `Cc1[nH]c2ccc(CNC(=O)CCC3(C)N=N3)cc2c1C`
A. 0.3

Q. Entry under review: `Cc1noc(C)c1-c1ccc(CNC(=O)CCC2(C)N=N2)cc1` . Reported MS labeling percentage, Myo?
A. 3

Q. For `Cc1nc(NC(=O)CCC2(C)N=N2)c2cnn(-c3ccc(F)cc3)c2n1` , what is its reported MS labeling percentage, Myo?
A. 0

Q. Returns the measured MS labeling percentage, Myo for the input compound. Input: `CC1(CCC(=O)Nc2nc(-c3c[nH]c(C(N)=O)c3)cs2)N=N1`
A. 0

Q. Fill in: MS labeling percentage, Myo of CC(Cc1ccc(O)c(O)c1)NC(=O)CCC1(C)N=N1 (stereo not drawn) is ___
A. 0.2

Q. GET /values?readout=MS labeling percentage, Myo&item= `CC1(CCC(=O)Nc2ccc3c(c2)NC(=O)CC3)N=N1`
A. 0.1

Q. Requested read-out: MS labeling percentage, Myo. Entry: `CC1(CCC(=O)NC2CCN(c3ccc(F)cc3)CC2)N=N1`
A. 1

Q. Any idea what MS labeling percentage, Myo was measured for `COc1ccccc1OCCNC(=O)CCC1(C)N=N1` ?
A. 0

Q. Returns the measured MS labeling percentage, Myo for the input compound. Input: `CC1(CCC(=O)NCc2ccccc2O)N=N1`
A. 0.2

Q. Could you share which MS labeling percentage, Myo value was measured for `CC1(CCC(=O)NCCNC(=O)Nc2ccccc2)N=N1` ?
A. 0.1

Q. Could you tell me which MS labeling percentage, Myo is on file for `Cc1nc2ccccc2n1CCNC(=O)CCC1(C)N=N1` ?
A. 0.2

Q. Could you tell me which MS labeling percentage, Myo is on file for `CC1(CCC(=O)NCc2ccc(-c3cncnc3)cc2)N=N1` ?
A. 1.3

Q. Please report the recorded MS labeling percentage, Myo for `Cc1nc2cc(NC(=O)CCC3(C)N=N3)ccc2n1-c1ccccc1` .
A. 0.5

Q. I would be grateful if you could share the reported MS labeling percentage, Myo for `COc1ccc(-c2csc(CCNC(=O)CCC3(C)N=N3)n2)cc1` .
A. 0.3

Q. Item under review: `CC1(CCC(=O)NCCCN2CCN(C(=O)OC(C)(C)C)CC2)N=N1` . Reported MS labeling percentage, Myo?
A. 0

Q. I'd like to know its MS labeling percentage, Myo. The compound in question is Cc1ccc(C(NC(=O)CCC2(C)N=N2)c2ccccn2)cc1 (stereo not drawn)
A. 0.2

Q. Sample CCOC(=O)[C@H](NC(=O)CCC1(C)N=N1)c1ccccc1 [PhP005, c1ccccc1[C@H](C(=O)OCC)NC(=O)CCC2(C)N=N2] — what was its MS labeling percentage, Myo?
A. 0.1

Q. What value of measured MS labeling percentage, Myo is listed for `CN(C)Cc1nc2ccc(NC(=O)CCC3(C)N=N3)cc2o1` ?
A. 0

Q. Record request: MS labeling percentage, Myo value, item `CC1(CCC(=O)NCCSCc2ccccc2)N=N1`
A. 0.1

Q. Query (compound): `CC1(CCC(=O)NCc2c(O)ccc3ccccc23)N=N1` ; field requested: MS labeling percentage, Myo
A. 0.7

Q. Dear colleague, I am looking for the recorded MS labeling percentage, Myo of the following compound: CC1(CCC(=O)NCc2cc3ccccc3[nH]2)N=N1 [PhP040, N1=NC1(C)CCC(=O)NCc(c2)[nH]c(c23)cccc3]
A. 0.5

Q. Query (compound): `CCc1cc(NC(=O)CCC2(C)N=N2)nc(C)n1` ; field requested: MS labeling percentage, Myo
A. 0.2

Q. Would you kindly share the measured MS labeling percentage, Myo for `Cn1ccnc1CCNC(=O)CCC1(C)N=N1` ?
A. 0.2

Q. Please report the recorded MS labeling percentage, Myo for `COc1ccc(CCNC(=O)CCC2(C)N=N2)c2ccccc12` .
A. 1.7

Q. Given CC(Cc1cccc(OCc2ccccc2)c1)NC(=O)CCC1(C)N=N1 (stereo not drawn) , state its recorded MS labeling percentage, Myo.
A. 0.3

---

Task for the reader: assign each of the following compounds its reported MS labeling percentage, Myo.
Tested on: myoglobin (Myo)
assay info: Intact protein MS photoaffinity labeling screen, myoglobin
Assay type: binding
particulars: intact protein MS after 10 min irradiation
Quick note: give the figure in %, leave out the unit.

Q. Short answer please: MS labeling percentage, Myo, myoglobin (Myo), entry CC1(CCC(=O)NCC(C)(C)NS(C)(=O)=O)N=N1 [PhP045, CS(=O)(=O)NC(C)(C)CNC(=O)CCC1(C)N=N1]
A. 0.2

Q. Quick check: MS labeling percentage, Myo on myoglobin (Myo), item CC1(CCC(=O)NC2CCc3[nH]cnc3C2)N=N1 (stereo not drawn) [PhP085, N1=NC1(C)CCC(=O)NC(CC2)Cc(c23)nc[nH]3] ?
A. 0.1

Q. What value of MS labeling percentage, Myo on myoglobin (Myo) does CC1(CCC(=O)NCc2ccc(-n3ccnc3)cc2)N=N1 [PhP033, N1=NC1(C)CCC(=O)NCc2ccc(cc2)-n3ccnc3] have?
A. 0.3

Q. API: value(readout=MS labeling percentage, Myo, system=myoglobin (Myo)) for record CC1(CCC(=O)N[C@@H](Cc2ccc(O)cc2)C(N)=O)N=N1 [PhP058]
A. 0.1

Q. For myoglobin (Myo), provide MS labeling percentage, Myo of CC1(CCC(=O)NCc2cccc(C(N)=O)c2)N=N1 [PhP059, N1=NC1(C)CCC(=O)NCc2cccc(c2)C(=O)N] please.
A. 0.7

Q. Record lookup: for myoglobin (Myo), what MS labeling percentage, Myo belongs to COC(=O)C(NC(=O)CCC1(C)N=N1)c1ccc(C)cc1 (stereo not drawn) [PhP019, c1cc(C)ccc1C(C(=O)OC)NC(=O)CCC2(C)N=N2] ?
A. 0.1

Q. Give MS labeling percentage, Myo (myoglobin (Myo)) of the following compound: COc1nc(C)cc(C)c1CNC(=O)CCC1(C)N=N1 [PhP068, COc1nc(C)cc(C)c1CNC(=O)CCC2(C)N=N2]
A. 0.4

Q. Item: CC1(CCC(=O)NC2CCCC(NC(=O)OC(C)(C)C)C2)N=N1 (stereo not drawn) [PhP015] Test system: myoglobin (Myo) Read-out: MS labeling percentage, Myo Value: ?
A. 0.2

Q. Quick check: MS labeling percentage, Myo on myoglobin (Myo), item Cn1nccc1C(=O)NCCNC(=O)CCC1(C)N=N1 [PhP095, Cn1nccc1C(=O)NCCNC(=O)CCC2(C)N=N2] ?
A. 0.1

Q. Give recorded MS labeling percentage, Myo with myoglobin (Myo) for the following compound: CCN(CCCNC(=O)CCC1(C)N=N1)c1ccccc1 [PhP048, c1ccccc1N(CC)CCCNC(=O)CCC2(C)N=N2]
A. 0

Q. Provide the documented MS labeling percentage, Myo with myoglobin (Myo) as the system for Cc1[nH]c2ccccc2c1SCCNC(=O)CCC1(C)N=N1 [PhP065]
A. 0.1

Q. Form: Entry = CC1(CCC(=O)Nc2sc3c(c2C(N)=O)CCC(C(C)(C)C)C3)N=N1 (stereo not drawn) [PhP049] | System = myoglobin (Myo) | MS labeling percentage, Myo = ____
A. 0.1

Q. Give recorded MS labeling percentage, Myo with myoglobin (Myo) for the following compound: Cc1nnc(CNC(=O)CCC2(C)N=N2)[nH]1 [PhP093, Cc1nnc([nH]1)CNC(=O)CCC2(C)N=N2]
A. 0.2

Q. Return MS labeling percentage, Myo measured with myoglobin (Myo) given this compound: Cc1nnc(C(C)NC(=O)CCC2(C)N=N2)[nH]1 (stereo not drawn) [PhP090, Cc([nH]1)nnc1C(C)NC(=O)CCC2(C)N=N2]
A. 0.2

Q. API: value(readout=MS labeling percentage, Myo, system=myoglobin (Myo)) for record CC1(CCC(=O)NCCCCN2CCOCC2)N=N1 [PhP022, N1=NC1(C)CCC(=O)NCCCCN2CCOCC2]
A. 0.2

---

Give measured MS labeling percentage, CA for each item. Keep answers brief.
Tested on: carbonic anhydrase II (CA)
assay info: Intact protein MS photoaffinity labeling screen, carbonic anhydrase
Assay type: binding
particulars: intact protein MS after 10 min irradiation
Procedure: Using a plate-based format with one fragment per well, each fragment was incubated with the target proteins for 15 min to allow for the formation of non-covalent interactions. […] Finally, the results were directly analyzed from the plate using intact protein mass spectrometry by observing the mass additions that correspond to successful labeling (Fig. 2c, for labeling % values see Supplementary data). […]
Write the answer as a number in %, unit excluded.

Q. Record request: MS labeling percentage, CA value, item COC(=O)C(Cc1c[nH]c2ccccc12)NC(=O)CCC1(C)N=N1 (stereo not drawn)
A. 0.3

Q. Looking for the measured MS labeling percentage, CA of `CC1(CCC(=O)NCc2cccc(C(N)=O)c2)N=N1` , can you help?
A. 0.6

Q. # MS labeling percentage, CA lookup, item `Cc1nc2cc(NC(=O)CCC3(C)N=N3)ccc2n1-c1ccccc1`
A. 0.6

Q. // query MS labeling percentage, CA value for entry `Cc1[nH]c2ccccc2c1SCCNC(=O)CCC1(C)N=N1`
A. 0.3

Q. For the molecule shown here, CC1(CCC(=O)NCCc2nc3ccccc3[nH]2)N=N1 [PhP031, N1=NC1(C)CCC(=O)NCCc(n2)[nH]c(c23)cccc3] , give the reported MS labeling percentage, CA.
A. 0.6

Q. What value of measured MS labeling percentage, CA is listed for `Cc1ccc2[nH]c(CNC(=O)CCC3(C)N=N3)nc2c1` ?
A. 0.7

Q. Value lookup for MS labeling percentage, CA; key = `COc1cc(C)nc(NC(=O)CCC2(C)N=N2)n1`
A. 0.7

Q. What measured MS labeling percentage, CA goes with `CC1(CCC(=O)NCCSCc2ccccc2)N=N1` ?
A. 1

Q. MS labeling percentage, CA lookup needed for CCC(NC(=O)CCC1(C)N=N1)c1ccccc1OC (stereo not drawn) , thanks.
A. 0.2
